Tested on: A2780 ovarian cancer cells
Conditions: read-out: IC50 values used for the dose matrix (cytotoxic agents); A2780, single agent, MTS 72 hours
pIC50: −log10 of the molar value.
result.type: pIC50

INSERT INTO results (compound, result_type, numeric_value) VALUES
  ('CCC1=C[C@@H]2CN(C1)Cc1c([nH]c3ccccc13)[C@@](C(=O)OC)(c1cc3c(cc1OC)N(C)[C@H]1[C@@](O)(C(=O)OC)[C@H](OC(C)=O)[C@]4(CC)C=CCN5CC[C@]31[C@@H]54)C2 [vinorelbine, reference compound]', 'pIC50', 8.40);

###

Biological target: Tpm3.1 (Homo sapiens, UniProt P06753)
Sequence (P06753 with tags, fused parts or gaps isoform P06753-2): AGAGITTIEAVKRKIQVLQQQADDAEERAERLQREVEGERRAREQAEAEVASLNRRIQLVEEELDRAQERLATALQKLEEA
Experiment: Circular dichroism spectroscopy, thermal unfolding of Tpm3.1 peptides
Assay type: binding
Set-up: N-terminus (residues 2-80 with an initial Ala-Gly dipeptide to mimic N-terminal acetylation) of Tpm3.1; Peptides corresponding to the C-terminus (residues 139-248) and N-terminus; made in house
Conditions: test compound 100 μM, peptide 20 μM, CD at 222 nm
result.type: Effect on stability of the Tpm3.1 N-terminal peptide

INSERT INTO measurements (compound, result) VALUES
  ('CN1CCN(CCNc2nc(-c3ccsc3)nc3ccccc23)CC1', 'decrease the stability'),
  ('OCCCNc1nc(NCCc2cccc(C(F)(F)F)c2)nc2ccccc12', 'decrease the stability'),
  ('OCCNc1nc(NCc2ccc(C(F)(F)F)cc2)nc2ccccc12', 'decrease the stability');
